target: Metabotropic glutamate receptor 5 (Rattus norvegicus); assay: Positive allosteric modulation of rat mGluR5 expressed in HEK293 cells
Sequence (P31424 whole entry): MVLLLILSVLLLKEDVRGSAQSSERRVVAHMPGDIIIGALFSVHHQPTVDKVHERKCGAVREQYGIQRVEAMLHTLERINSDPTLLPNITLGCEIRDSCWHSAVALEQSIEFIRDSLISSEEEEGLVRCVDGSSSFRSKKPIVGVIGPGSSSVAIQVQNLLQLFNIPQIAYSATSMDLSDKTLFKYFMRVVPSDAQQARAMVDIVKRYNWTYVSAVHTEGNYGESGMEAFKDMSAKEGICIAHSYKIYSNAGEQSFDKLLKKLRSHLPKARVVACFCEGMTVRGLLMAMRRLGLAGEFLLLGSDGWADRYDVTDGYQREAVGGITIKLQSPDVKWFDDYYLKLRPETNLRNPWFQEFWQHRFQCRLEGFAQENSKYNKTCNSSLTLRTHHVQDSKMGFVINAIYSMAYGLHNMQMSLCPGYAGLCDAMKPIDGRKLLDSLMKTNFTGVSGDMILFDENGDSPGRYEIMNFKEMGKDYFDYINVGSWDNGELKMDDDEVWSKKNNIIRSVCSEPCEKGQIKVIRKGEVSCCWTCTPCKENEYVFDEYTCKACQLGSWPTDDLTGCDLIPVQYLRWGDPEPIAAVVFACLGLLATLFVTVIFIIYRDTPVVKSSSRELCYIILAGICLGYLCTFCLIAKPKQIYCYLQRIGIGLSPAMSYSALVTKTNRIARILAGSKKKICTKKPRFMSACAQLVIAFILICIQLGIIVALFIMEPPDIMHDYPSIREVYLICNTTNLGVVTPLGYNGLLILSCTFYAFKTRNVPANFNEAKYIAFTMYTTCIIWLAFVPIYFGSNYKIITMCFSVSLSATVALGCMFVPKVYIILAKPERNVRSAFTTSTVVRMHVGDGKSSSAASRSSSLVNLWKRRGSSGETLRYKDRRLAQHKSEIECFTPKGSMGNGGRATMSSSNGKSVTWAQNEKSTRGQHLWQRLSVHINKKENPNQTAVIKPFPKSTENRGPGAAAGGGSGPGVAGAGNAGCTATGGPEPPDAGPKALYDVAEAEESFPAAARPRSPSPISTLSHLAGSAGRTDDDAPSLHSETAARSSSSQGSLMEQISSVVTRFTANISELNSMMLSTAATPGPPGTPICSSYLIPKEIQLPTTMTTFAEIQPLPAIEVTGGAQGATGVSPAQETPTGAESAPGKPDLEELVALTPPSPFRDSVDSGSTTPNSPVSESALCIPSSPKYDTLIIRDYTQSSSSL
Here the recorded log10 EC50 is given for each entry.
Log10 applied to EC50; unit prior to transform: µM.

[
  {
    "Smi": "C=CCSc1nnc2c(n1)O[C@@H](c1ccc(N(C)C)cc1)N(C(C)=O)c1ccccc1-2",
    "log10 EC50": 0.50
  },
  {
    "Smi": "CSc1nnc2c(n1)O[C@@H](c1ccccn1)N(C(C)=O)c1ccccc1-2",
    "log10 EC50": 0.72
  },
  {
    "Smi": "CCC(=O)N1c2ccccc2-c2nnc(SC)nc2O[C@H]1c1cc2c(cc1Cl)OCO2",
    "log10 EC50": 0.72
  },
  {
    "Smi": "CCC(=O)N1c2ccccc2-c2nnc(SC)nc2O[C@H]1c1ccccn1",
    "log10 EC50": 0.87
  },
  {
    "Smi": "CCSc1nnc2c(n1)O[C@@H](c1ccc(OC)cc1OC)N(C(C)=O)c1ccccc1-2",
    "log10 EC50": -0.31
  }
]

Q: State the recorded log10 EC50 for this entry: CCC(=O)N1c2ccccc2-c2nnc(SC)nc2O[C@H]1c1cc(OC)c(OC)c(OC)c1
Ans: -0.08

Q: What do you get for CCC(=O)N1c2ccccc2-c2nnc(SC)nc2O[C@H]1c1ccc(OC)cc1 ?
Ans: 0.34

Data origin: ChEMBL document CHEMBL1255530
